Could you please report measured % Diarrhea for the items listed next?
System: CD1 mice
condition.summary: mouse, in vivo, ip
Numbers only, in %.

residue_codes="EKLTDLNYTLSVITLMNNTLH [NSP4 2-22]" measurement=0
residue_codes="DTGRNLGEFKAYPDGFLTCV [NV 464-483]" measurement=0
residue_codes="TKDEIEKQMDRVVKEMRRQLEMIDKLTTREIEQ [NSP4 90-123]" measurement=20

Briefly, % Diarrhea measured for DKLTTREIEQVELLKRIYDKLT [NSP4 114-135] : 67

From: patent US6673355B1
